meta.source: ChEMBL document CHEMBL5096236

MEASURED ON: Histone deacetylase 2 (Homo sapiens, UniProt Q92769)
Sequence (Q92769 whole entry, the tested form may be a part): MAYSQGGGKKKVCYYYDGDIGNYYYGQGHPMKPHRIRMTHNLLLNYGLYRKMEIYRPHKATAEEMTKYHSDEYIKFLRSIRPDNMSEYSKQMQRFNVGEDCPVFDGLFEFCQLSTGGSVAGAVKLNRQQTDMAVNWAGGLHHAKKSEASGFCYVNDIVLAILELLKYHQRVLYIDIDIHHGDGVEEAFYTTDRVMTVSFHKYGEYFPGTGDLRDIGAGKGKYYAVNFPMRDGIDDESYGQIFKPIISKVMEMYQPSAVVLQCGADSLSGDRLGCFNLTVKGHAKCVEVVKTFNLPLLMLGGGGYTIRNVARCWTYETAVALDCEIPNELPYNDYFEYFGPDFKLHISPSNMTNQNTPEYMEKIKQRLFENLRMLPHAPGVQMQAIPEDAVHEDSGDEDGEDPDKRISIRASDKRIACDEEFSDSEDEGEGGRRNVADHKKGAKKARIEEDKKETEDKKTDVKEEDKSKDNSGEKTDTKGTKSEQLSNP
ASSAY COMMENT: Inhibition of recombinant human C-terminal FLAG-tagged HDAC2 (1 to 488 residues) expressed in Sf9 insect cells using Z-Lys(Ac)-AMC as fluorogenic substrate incubated for 90 mins by microplate reader analysis
TEST CONDITIONS: record 2

- SMI: "CN(C)c1ccc(C(=O)N(CC(=O)NCc2ccccc2)Cc2ccc(C(=O)NO)cc2F)cc1"
  IC50: "14 nM"

* * *

Documented pIC50 across a set of compounds
MEASURED ON: Histone deacetylase 1 (Homo sapiens)
Sequence (Q13547 whole entry, the tested form may be a part): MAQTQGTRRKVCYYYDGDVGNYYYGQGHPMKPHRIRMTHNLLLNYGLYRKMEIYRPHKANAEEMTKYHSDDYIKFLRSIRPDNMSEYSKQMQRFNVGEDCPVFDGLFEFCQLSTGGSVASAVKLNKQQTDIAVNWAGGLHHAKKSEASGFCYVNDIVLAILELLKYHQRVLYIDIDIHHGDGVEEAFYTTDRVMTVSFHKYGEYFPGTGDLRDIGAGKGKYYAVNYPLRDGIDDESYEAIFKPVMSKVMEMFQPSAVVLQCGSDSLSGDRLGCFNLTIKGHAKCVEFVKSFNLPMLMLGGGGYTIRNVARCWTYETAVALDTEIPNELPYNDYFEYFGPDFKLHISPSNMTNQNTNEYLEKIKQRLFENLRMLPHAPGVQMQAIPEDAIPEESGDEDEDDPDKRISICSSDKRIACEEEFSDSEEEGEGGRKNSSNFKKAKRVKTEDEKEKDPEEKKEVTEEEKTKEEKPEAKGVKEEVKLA
ASSAY COMMENT: Inhibition of recombinant human C-terminal FLAG/His-tagged HDAC1 (1 to 482 residues) expressed in Sf9 insect cells using Z-Lys(Ac)-AMC as fluorogenic substrate incubated for 90 mins by microplate reader analysis
pIC50: −log10 of the molar value.

- SMI: "Cc1cc(C)cc(C(=O)N(CC(=O)NCc2ccccc2)Cc2ccc(C(=O)NO)cc2F)c1"
  MEASURED ON: "Histone deacetylase 1 (Homo sapiens)"
  pIC50: 7.11
- SMI: "CN(C)c1ccc(C(=O)N(CC(=O)NCc2ccccc2)Cc2ccc(C(=O)NO)cc2)cc1"
  MEASURED ON: "Histone deacetylase 1 (Homo sapiens)"
  pIC50: 8.30
- SMI: "O=C(CN(Cc1ccc(C(=O)NO)cc1F)C(=O)c1ccccc1C(F)(F)F)NC1CCCCC1"
  MEASURED ON: "Histone deacetylase 1 (Homo sapiens)"
  pIC50: 5.84
- SMI: "COc1ccccc1C(=O)N(CC(=O)NC(C)(C)C)Cc1ccc(C(=O)NO)cc1F"
  MEASURED ON: "Histone deacetylase 1 (Homo sapiens)"
  pIC50: 5.76
- SMI: "CC(C)(C)NC(=O)CN(Cc1ccc(C(=O)NO)cc1F)C(=O)c1ccccc1C(F)(F)F"
  MEASURED ON: "Histone deacetylase 1 (Homo sapiens)"
  pIC50: 5.63
- SMI: "COc1ccccc1C(=O)N(CC(=O)NC1CCCCC1)Cc1ccc(C(=O)NO)cc1F"
  MEASURED ON: "Histone deacetylase 1 (Homo sapiens)"
  pIC50: 5.82
- SMI: "Cc1ccccc1C(=O)N(CC(=O)NC(C)(C)C)Cc1ccc(C(=O)NO)cc1F"
  MEASURED ON: "Histone deacetylase 1 (Homo sapiens)"
  pIC50: 5.76
- SMI: "CC(C)(C)NC(=O)CN(Cc1ccc(C(=O)NO)cc1F)C(=O)c1ccccc1F"
  MEASURED ON: "Histone deacetylase 1 (Homo sapiens)"
  pIC50: 5.93
- SMI: "Cc1ccccc1C(=O)N(CC(=O)NC1CCCCC1)Cc1ccc(C(=O)NO)cc1F"
  MEASURED ON: "Histone deacetylase 1 (Homo sapiens)"
  pIC50: 6.03
- SMI: "Cc1cc(C)cc(C(=O)N(CC(=O)NC(C)(C)C)Cc2ccc(C(=O)NO)cc2F)c1"
  MEASURED ON: "Histone deacetylase 1 (Homo sapiens)"
  pIC50: 6.24
- SMI: "CN(C)c1ccc(C(=O)N(CC(=O)NC2CCCCC2)Cc2ccc(C(=O)NO)cc2F)cc1"
  MEASURED ON: "Histone deacetylase 1 (Homo sapiens)"
  pIC50: 7.18

* * *

MEASURED ON: Histone deacetylase 3/Nuclear receptor corepressor 2 (HDAC3/NCoR2) (Homo sapiens, UniProt O15379)
Sequence (O15379 whole entry, the tested form may be a part): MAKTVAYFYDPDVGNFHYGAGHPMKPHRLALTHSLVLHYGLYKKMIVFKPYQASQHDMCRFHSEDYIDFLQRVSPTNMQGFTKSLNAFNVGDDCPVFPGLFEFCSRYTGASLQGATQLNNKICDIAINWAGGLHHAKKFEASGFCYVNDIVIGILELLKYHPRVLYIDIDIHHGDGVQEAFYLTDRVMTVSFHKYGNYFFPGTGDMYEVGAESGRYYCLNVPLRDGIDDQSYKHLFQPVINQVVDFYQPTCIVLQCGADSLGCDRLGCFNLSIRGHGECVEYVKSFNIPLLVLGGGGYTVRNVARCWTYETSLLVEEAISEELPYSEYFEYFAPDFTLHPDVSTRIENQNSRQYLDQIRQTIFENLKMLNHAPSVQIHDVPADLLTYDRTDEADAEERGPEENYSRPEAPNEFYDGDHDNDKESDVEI
Sequence (Q9Y618 whole entry, further chain, the tested form may be a part): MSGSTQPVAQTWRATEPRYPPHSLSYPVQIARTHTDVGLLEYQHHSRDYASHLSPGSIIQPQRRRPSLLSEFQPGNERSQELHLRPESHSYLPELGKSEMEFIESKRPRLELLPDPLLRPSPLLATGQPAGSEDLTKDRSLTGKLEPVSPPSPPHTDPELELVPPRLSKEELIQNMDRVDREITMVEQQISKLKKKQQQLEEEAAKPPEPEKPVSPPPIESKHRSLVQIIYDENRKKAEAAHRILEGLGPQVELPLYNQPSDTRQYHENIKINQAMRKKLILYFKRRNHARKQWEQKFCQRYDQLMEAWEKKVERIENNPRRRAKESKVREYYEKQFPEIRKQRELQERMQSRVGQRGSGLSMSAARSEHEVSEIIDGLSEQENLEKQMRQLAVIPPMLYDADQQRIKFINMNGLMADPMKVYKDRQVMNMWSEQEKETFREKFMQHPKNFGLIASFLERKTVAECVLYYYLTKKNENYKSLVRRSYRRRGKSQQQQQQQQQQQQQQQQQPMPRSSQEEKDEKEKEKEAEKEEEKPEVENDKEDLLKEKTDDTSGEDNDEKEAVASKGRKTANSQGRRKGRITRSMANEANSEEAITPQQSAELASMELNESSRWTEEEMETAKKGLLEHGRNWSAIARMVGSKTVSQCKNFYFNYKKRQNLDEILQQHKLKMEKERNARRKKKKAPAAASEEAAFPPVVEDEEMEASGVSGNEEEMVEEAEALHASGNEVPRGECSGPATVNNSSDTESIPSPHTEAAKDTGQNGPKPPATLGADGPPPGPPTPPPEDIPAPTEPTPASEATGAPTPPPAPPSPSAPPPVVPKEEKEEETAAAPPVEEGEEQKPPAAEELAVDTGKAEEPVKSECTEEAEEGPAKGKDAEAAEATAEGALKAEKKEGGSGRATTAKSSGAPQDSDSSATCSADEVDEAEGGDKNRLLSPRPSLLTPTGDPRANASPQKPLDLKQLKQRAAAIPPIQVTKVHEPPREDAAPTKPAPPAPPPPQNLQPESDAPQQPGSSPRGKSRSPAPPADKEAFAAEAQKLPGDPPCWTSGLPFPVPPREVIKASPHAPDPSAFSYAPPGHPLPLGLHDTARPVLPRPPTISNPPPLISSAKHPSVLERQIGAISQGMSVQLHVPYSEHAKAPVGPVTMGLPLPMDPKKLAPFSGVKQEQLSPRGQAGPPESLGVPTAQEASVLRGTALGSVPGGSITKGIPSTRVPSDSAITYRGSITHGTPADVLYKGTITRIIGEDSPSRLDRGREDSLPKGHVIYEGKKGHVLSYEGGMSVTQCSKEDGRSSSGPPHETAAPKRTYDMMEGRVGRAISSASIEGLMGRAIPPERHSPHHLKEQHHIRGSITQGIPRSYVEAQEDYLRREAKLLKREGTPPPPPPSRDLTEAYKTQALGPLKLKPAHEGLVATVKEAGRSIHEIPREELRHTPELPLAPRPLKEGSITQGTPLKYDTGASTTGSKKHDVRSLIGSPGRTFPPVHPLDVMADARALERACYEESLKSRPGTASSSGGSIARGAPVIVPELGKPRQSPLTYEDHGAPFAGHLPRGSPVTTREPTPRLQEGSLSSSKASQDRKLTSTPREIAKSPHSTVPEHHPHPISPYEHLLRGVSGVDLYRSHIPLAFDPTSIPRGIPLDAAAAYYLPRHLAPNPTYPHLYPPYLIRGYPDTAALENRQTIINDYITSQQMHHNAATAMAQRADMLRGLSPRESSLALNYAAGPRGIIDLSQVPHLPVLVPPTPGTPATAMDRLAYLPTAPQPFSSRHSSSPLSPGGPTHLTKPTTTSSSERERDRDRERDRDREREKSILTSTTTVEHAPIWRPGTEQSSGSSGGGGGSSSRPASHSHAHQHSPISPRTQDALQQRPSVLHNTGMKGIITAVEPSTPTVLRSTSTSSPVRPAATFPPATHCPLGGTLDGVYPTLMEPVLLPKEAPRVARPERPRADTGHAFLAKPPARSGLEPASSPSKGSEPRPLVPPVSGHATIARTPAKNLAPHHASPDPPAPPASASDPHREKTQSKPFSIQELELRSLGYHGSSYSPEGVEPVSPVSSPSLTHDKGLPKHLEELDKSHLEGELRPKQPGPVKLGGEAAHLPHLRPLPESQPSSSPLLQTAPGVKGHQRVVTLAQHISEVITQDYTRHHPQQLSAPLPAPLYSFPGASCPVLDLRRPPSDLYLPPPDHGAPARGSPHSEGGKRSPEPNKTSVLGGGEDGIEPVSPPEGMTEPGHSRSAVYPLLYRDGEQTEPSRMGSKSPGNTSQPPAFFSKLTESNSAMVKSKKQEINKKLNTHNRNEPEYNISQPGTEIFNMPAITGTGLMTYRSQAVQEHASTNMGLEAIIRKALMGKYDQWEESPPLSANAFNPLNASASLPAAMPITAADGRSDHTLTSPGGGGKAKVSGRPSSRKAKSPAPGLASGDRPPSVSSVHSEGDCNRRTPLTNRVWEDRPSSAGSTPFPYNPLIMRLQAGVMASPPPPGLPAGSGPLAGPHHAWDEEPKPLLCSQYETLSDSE
ASSAY COMMENT: Inhibition of C-terminal His-tagged recombinant human HDAC3 (1 to 428 residues)/N-terminal GST-tagged recombinant human NCoR2 (395 to 489 residues) co-expressed in Sf9 cells using Z-Lys(Ac)-AMC as fluorogenic substrate incubated for 90 mins by microplate reader analysis
pIC50: −log10 of the molar value.
VALUE TYPE: pIC50

- SMI: "CC(C)c1ccccc1C(=O)N(CC(=O)NC(C)(C)C)Cc1ccc(C(=O)NO)cc1F"
  VALUE: 5.08
- SMI: "CN(C)c1ccc(C(=O)N(CC(=O)NCc2ccccc2)Cc2ccc(C(=O)NO)cc2F)cc1"
  VALUE: 7.68
